- System: Nucleic Acid
- TEST NAME: Binding affinity to G-quadruplex F21T DNA assessed as change in melting temperature at 3 uM under K+ ionic conditions by FRET assay
- Type: nucleic-acid assay

SMI: CCOC(=O)c1ccc(-c2csc3nc(-c4ccc(OCc5ccccc5)cc4)nn23)cc1
INEQUALITY OPERATOR: <
ΔTm (°C): 1
//
SMI: O=C(NCCN1CCCCC1)c1ccc(-c2csc3nc(-c4ccc(OCc5ccccc5)cc4)nn23)cc1
INEQUALITY OPERATOR: =
ΔTm (°C): 2.7
//
SMI: O=C(NCCN1CCCCC1)c1ccc(-c2csc3nc(-c4ccc(OCCN5CCCCC5)cc4)nn23)cc1
INEQUALITY OPERATOR: =
ΔTm (°C): 11.2
//
SMI: Oc1ccc(-c2nc3scc(-c4ccc(O)cc4)n3n2)cc1
INEQUALITY OPERATOR: <
ΔTm (°C): 1
//
SMI: c1ccc(COc2ccc(-c3nc4scc(-c5ccc(OCc6ccccc6)cc5)n4n3)cc2)cc1
INEQUALITY OPERATOR: <
ΔTm (°C): 1
//
SMI: c1cc(-c2nc3scc(-c4ccc(OCCN5CCCCC5)cc4)n3n2)ccc1OCCN1CCCCC1
INEQUALITY OPERATOR: =
ΔTm (°C): 8.7
//
SMI: O=C(NCCN1CCCCC1)c1ccc(-c2csc3nc(-c4ccc(OCCN5CCCC5)cc4)nn23)cc1
INEQUALITY OPERATOR: =
ΔTm (°C): 14.6
//
SMI: O=C(NCCN1CCCCC1)c1ccc(-c2csc3nc(-c4ccc(O)cc4)nn23)cc1
INEQUALITY OPERATOR: =
ΔTm (°C): 1.8
